Tested on: MS2 coat protein
METHOD NOTES: apparent KD of MS2 coat protein; designed switch direction (-1 OFF switch, 1 ON switch): -1; higher = weaker reporter binding
EXPERIMENTAL CONTEXT: input ligand: FMN 200 uM
MEASURED ATTRIBUTE: apparent KD of MS2 coat protein

Example results:
{"columns": ["SEQUENCE STRING", "apparent KD of MS2 coat protein"],
 "data": [
  ["GAUGGACAUGAGGAUCACCCAUGUAAGGAUAUUGAUUAUGGUUAUAAAUAAUUAUGGUCAAGAAGGUACUCGUC [-17.8, -14.8 kcal, A 34%] (Eterna round: R97, puzzle: Exclusion 1)", "114 nM"],
  ["CCCGAGUUAGGAUAUAAACCAAAGUAACCAGCAGCUUAGCUUUAGAAGGAACAUGAGGAUCACCCAUGUGGUCU [Eternabot (L2) Solution 70] (Eterna round: R97, puzzle: Exclusion 4)", "119 nM"],
  ["ACAUGAGGAUCACCCAUGUCCGUCUGGUCUGUCUCGGCUGUCGAGGAUAUAGCCCGGUAUCCGCGCUAGAAGGUGGGAGUCGGC [Aenatbe mod 98] (Eterna round: R96, puzzle: Exclusion NG 3)", "31.4 nM"],
  ["AUAAAGCAAGCAUGGUCCCACAUGAGGAUCACCCAUGUGUUCGUCUUAUAGGCUGCUGAGGCUUUUGCCUCGGUGGC [LRO Sensor-off var1-07 loose mod of D91 from Mat747] (Eterna round: R97, puzzle: Sensor, turn-off variant 1)", "155 nM"],
  ["AGCCGGUCGUGAGGAUAUUACAUGAGGAUCACCCAUGUCGACGGGCUACGGGCGGUCGGCUCGUGUGAGAAGGCGCGCCCGGAA [Tibibiza] (Eterna round: R96, puzzle: Exclusion NG 2)", "17.3 nM"]
]}

Query: apparent KD of MS2 coat protein; subject: CUCGUGUAAGGAUAUGUACCGACACCGCUAAAGCGGCUCCGACAGAAGGUACAUGAGGAUCACCCAUGUACUGC [EX4 B.2] (Eterna round: R97, puzzle: Exclusion 4) 25.9 nM

---

Test system: K4 kissing-loop RNA reporter;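 note: bound reporter read as fluorescence of individual clusters on recovered sequencing chips by microscopy, with normalized cluster intensities fitted with a binding model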
METHOD NOTES: apparent KD of K4 kissing-loop reporter; higher = weaker reporter binding
EXPERIMENTAL CONTEXT: Eterna round: R107; input ligand: FMN 200 uM
MEASURED ATTRIBUTE: apparent KD of K4 kissing-loop reporter

Query apparent KD of K4 kissing-loop reporter on K4 kissing-loop RNA reporter for ACGUUCGGAACGGCCGCCACUAUGGGCAGUGAUGUUGCCCAUAACCGGUUUUGCGUCAGAUCCCUUAGGACCGGGUUCUGGUAUA [Soonlesoso] 78.4 nM

Query apparent KD of K4 kissing-loop reporter on K4 kissing-loop RNA reporter for GGGCCUGGGCCCGGAAGGGCCUGGGCCCGUUAGGAUAUGACGUGAUUCAGAAGGGAUGGGUGGAGUGAUGUUCCACCCGAGAGGG [#2 Same State - FMN A Attempt #25 (HarryS)] 85.9 nM

Query apparent KD of K4 kissing-loop reporter on K4 kissing-loop RNA reporter for GCGAUCUGCAUCGAUACCAGCCCAGUGAUGUUGGGCUGCUCUCCAUGGGUGCCAGACACGGGCCCUUGGCAGCGAGGUAGAGCCC [Maonzaa] 129 nM

---

Tested on: MS2 coat protein
METHOD NOTES: apparent KD of MS2 coat protein; designed switch direction (-1 OFF switch, 1 ON switch): -1; higher = weaker reporter binding
EXPERIMENTAL CONTEXT: input ligand: none
Classes by apparent KD of MS2 coat protein: lower bin = under 20 nM, middle bin = from 20 nM up to 30 nM, upper bin = 30 nM and over

Would you please look over these solved cases?
{"columns": ["SEQUENCE STRING", "CLASSIFICATION"],
 "data": [
  ["UACAUGUGAGGAUAUGUACGAAGCCCGGCUGGGCCUCGCAGGCAGAAGGCACAUGAGGAUCACCCAUGUGACCG [Enanvezave] (Eterna round: R96, puzzle: Exclusion 4)", "lower bin"],
  ["GGGAAAGAGGUAAGGAUAUCCUCCUCGAAAGAGGAGGAGAAGGUACAUGAGGAUCACCCAUGUAAGAAGAAGAG [AK-MS2ROC-r4-Bmoexclusion4-13] (Eterna round: R97, puzzle: Brourd's mod of Exclusion 4)", "lower bin"],
  ["CGCAAAACCGUAAGGAUAUCCUUUCCGAAAGGGACGGAGAAGGUACAUGAGGAUCACCCAUGUCCUCCGAGCUG [Eternabot (Original) Solution 18] (Eterna round: R97, puzzle: Brourd's mod of Exclusion 4)", "lower bin"],
  ["ACAUUGGUAGUGAGGAUAUCGGUGAGAUAGAAUGACGAGAAGGCACAUGAGGAUCACCCAUGUAAGAUUGGGCA [JR_BMEx4_Sub042] (Eterna round: R97, puzzle: Brourd's mod of Exclusion 4)", "upper bin"],
  ["UUGUUGUAUGUAGGAUAUGCAUAUUAUUGUUAUGCAGAAGGACAUGAGGAUCACCCAUGUAUAUUAUUAUUAUAUGUUAUAUAU [Title] (Eterna round: R96, puzzle: Exclusion NG 1)", "middle bin"]
]}

Band for UUGGUUGUGGUAGGAUAUCCGUUGGAAACCGUCGGAGAAGGACCACAGUCACUGGGUCCUUGUCUGGUGGACUGGAAUCACCAU [pwkr exNG1 F6.15] (Eterna round: R96, puzzle: Exclusion NG 1) ? upper bin

Band for UAACAGUAAGGAUAUCCAGAUCCAGACAUGAGGAUCACCCAUGUCAAAUACCUUUGACACGGAGAAGGUACGAAAA [EX5 A.26] (Eterna round: R97, puzzle: Exclusion 5) ? upper bin

Band for AAUUCACAAGCGAGAUCCCACAUGAGGAUCACCCAUGUGCUCGUCUUAUAAGGUACUGUGACGAGAGUCACGGUACC [Mat - Sensor, turn-off var - Eli Mod - D88] (Eterna round: R97, puzzle: Sensor, turn-off variant 1) ? lower bin

Band for UGUAUACAUGAGGAUCACCCAUGUAAGGAUAUGCUUUAUUAUUAUUAUUAUUAUUGUUGCAGAAGGUACAUUAU [LRO-Excl01-07] (Eterna round: R97, puzzle: Exclusion 1) ? middle bin

Band for GCUCGUGGGCAAGGAUAUCCUACGCUGUUCUGGUUCGUGUCUGUCACAUGAGGAUCACCCAUGUGGGAGAAGGUGCACCAGGGU [Design 51] (Eterna round: R96, puzzle: Exclusion NG 2) ? lower bin

---

System: MS2 coat protein
METHOD NOTES: apparent KD of MS2 coat protein, switch OFF state (with FMN for OFF switches, without FMN for ON switches); designed switch direction (-1 OFF switch, 1 ON switch): -1; higher = weaker reporter binding
EXPERIMENTAL CONTEXT: FMN input: 0 or 200 uM; Eterna round: R93 (includes R88 designs)
Binary classification by apparent KD of MS2 coat protein, with 40 nM as an inclusive lower bound for met; all other cases are not met.

Would you please look over these solved cases?
{"columns": ["SEQUENCE STRING", "CLASSIFICATION"],
 "data": [
  ["CUCAAGUGAGGAUAUUCAAGAAAAGAAAAGAAAGAAAAGAAGAAGAAGGCACAUGAGGAUCACCCAUGUAAGAA [EteRNA is fun!]", "met"],
  ["AGCUAGUCAGGAUAUACGAAAACGAACGAAGCUGAGAAGGGACAUGAGGAUCACCCAUGUAGAAGGGACUAGCA [Diamond 33]", "met"],
  ["AAAAAACAUGAGGAUCACCCAUGUAAGGAUAUGCAAAAUAAAAGAAAUAAAAAGAAAAGCAGAAGGUACAUUAA [JL wbt mod 9]", "not met"]
]}

Now examine the next entry.
State whether the measured apparent KD of MS2 coat protein reaches 40 nM, counting equality as reaching it, for AACAAACAUGAGGAUCACCCAUGUCAGGAUAUGCAAACAACAAACAACAAACAACAAAGCAGAAGGGACAACAA [e1-3] not met

---

Test system: MS2 coat protein
METHOD NOTES: apparent KD of MS2 coat protein; higher = weaker reporter binding
EXPERIMENTAL CONTEXT: Eterna round: R107; input ligand: theophylline 20 uM
Binary classification by apparent KD of MS2 coat protein, with 90 nM as an inclusive lower bound for condition met; all other cases are condition not met.

Would you please look over these solved cases?
{"columns": ["SEQUENCE STRING", "CLASSIFICATION"],
 "data": [
  ["GCUCGUUGCAUGGAUACCAGUUGAUAGGCCGCCUCCGGAUACAUGAGGAUCACCCAUGUCAACCCUUGGCAGCCACCCAAUAGGG [theeternabot_exclusion_MS2_Theo_B_27]", "condition not met"],
  ["GGUGUAUCCAUCGAUACCAGCCACCACCGAUAGACCACAUGAGGAUCACCCAUGUUGGGUGGCCCUUGGCAGCGGUGGCUGUGCC [Same State - Theophylline B Attempt #3 (HarryS)]", "condition met"],
  ["UGACAUUGCUCAGAUACCAGACAUGAGGAUCACCCAUGUACCGAGGUACCCGAAAGGAAUGUCCCUUGGCAGCUGAGCAAUGUCU [TheoBX 4 #MS2Left #Theo2 #StaticStem]", "condition not met"]
]}

State whether the measured apparent KD of MS2 coat protein reaches 90 nM, counting equality as reaching it, for AGCCACUCGAGUGAUCCUCACGAGUGGCUACGAGGACCGGUACGGCCGCCACUCGAAUCAACAUGAGGAUCACCCAUGUAAUAAU [Brourdmod02] condition met

State whether the measured apparent KD of MS2 coat protein reaches 90 nM, counting equality as reaching it, for CGCGAGACGGCGGCCGCCACUUGUUGUUGGAAACUCGAGUUACAUGAGGAUCACCCAUGUCCUUAAAGGACCGGGCCGUAAGUAA [theeternabot_sameState_MS2_Trp_B_13] condition met

State whether the measured apparent KD of MS2 coat protein reaches 90 nM, counting equality as reaching it, for AGAUGUAGCGGAAGGAGCGUCAUGAGGAUCACCCAUGGCUCCCGUUGUGGGAGUUCCUUAGGUCAGGUAGGUCGCCGUUACGUCA [Omei Arg B SS B v6] condition met

State whether the measured apparent KD of MS2 coat protein reaches 90 nM, counting equality as reaching it, for GAGACAUCGGGAAGGAGCGCAUCCAAACCACACAUGAGGAUCACCCAUGUAUAAAUAUGCAUGCAGGUAGGUCGCCCGGUAUCCC [Tiisqure] condition not met

State whether the measured apparent KD of MS2 coat protein reaches 90 nM, counting equality as reaching it, for UGUACAUAAUUAGGUUACCUAUGUACAGAAGGAGCGUCGAUGACGACAGGUAGGUCGCUGUUAACAUGAGGAUCACCCAUGUACA [Arg A Ex t4] condition not met

State whether the measured apparent KD of MS2 coat protein reaches 90 nM, counting equality as reaching it, for CGCGUCCCGGACGAUACCAGAUAUGAGCGACACAUGAGGAUCACCCAUGUCAAUCAUGAGAUCCCUUGGCAGCGUUUGCACAACU [theeternabot_sameState_MS2_Theo_B_8] condition met

State whether the measured apparent KD of MS2 coat protein reaches 90 nM, counting equality as reaching it, for GGGCCUAUAAGCAGGCCCACAGCGGGUGAUACCAGCAAUAAAACUUGCCCUUGGCAGCACACAGCUACAUGAGGAUCACCCAUGU [Beator] condition not met

State whether the measured apparent KD of MS2 coat protein reaches 90 nM, counting equality as reaching it, for ACGACGGCUGCGGCCGCCACUGUACAUGAGGAUCACCCAUGUGUAGUAAUUGGGACCCUGUGUUACAGGACCGGGUAGUUGAUUA [Orquteer] condition not met

State whether the measured apparent KD of MS2 coat protein reaches 90 nM, counting equality as reaching it, for GAUAGUUGAAGGGAUACCAGCCUGGACAUGAGGAUCACCCAUGUAGCAUGUUUGAAACUGGGCCCUUGGCAGCCCAUAUUGUGUA [#11 Same State - Theophylline B] condition not met

State whether the measured apparent KD of MS2 coat protein reaches 90 nM, counting equality as reaching it, for GGAUAGGACACGGCCGCCACUAGCUAGGAUACUAGCAACAUUUCCUCACCUGAGGAUCACCCUGGUAGGACCGGGUGUCCUAUCG condition met

State whether the measured apparent KD of MS2 coat protein reaches 90 nM, counting equality as reaching it, for UCGUGUAUUUCGGAUACCAGUGAAAUCGAUACAUGAGGAUCACCCAUGUGAGAGGAUGUACACCCUUGGCAGCUGUAUAUAUCUG [fgfmullin] condition not met

State whether the measured apparent KD of MS2 coat protein reaches 90 nM, counting equality as reaching it, for CCGACGAUGACCAAAGGUCAGGAGUGCGCACGAGGACCGGUACGGCCGCCACUCGAGGAGUGGGACAUGAGGAUCACCCAUGUAA [X-TryptA-ms2@65-1] condition not met

State whether the measured apparent KD of MS2 coat protein reaches 90 nM, counting equality as reaching it, for UUCCACCUAAAGCGUUGCCCUCGUGAUGAUACCAGUUUCAGCGGUAACCCUUGGCAGCAUCGGACAUGAGGAUCACCCAUGUGGA [theeternabot_exclusion_MS2_Theo_A_47] condition met

State whether the measured apparent KD of MS2 coat protein reaches 90 nM, counting equality as reaching it, for CACAUGAGGAUCACCCAUGUCUGAACUGAAGGAGCGCUAAAUAAGGCAGGUAGGUCGCGGAAUCCCGGGUGCAUAUGCACCCGGG [9.aB] condition not met

State whether the measured apparent KD of MS2 coat protein reaches 90 nM, counting equality as reaching it, for AGACAUGAGGAUCACCCAUGUAGUACGGAUACCAGAUCCAGAUGCGUCCCUUGGCAGCUGUAGUACAGCGUUACAUCGCUCAUAG [Exclusion - Theophylline A (Freestyle 25)] condition not met

Every entry's value here was drawn from the supplement of paper PMC9170038.
